Reported values of pIC50 for individual entries
molecular target: STAT6 activation; assay: STAT6 activation inhibition test (IL-4-induced alkaline phosphatase STAT6 reporter gene assay); type: cell-based, human; conditions: concentration giving 50% suppression of alkaline phosphatase activity induced by IL-4 (1 ng/mL), 16 hours; 293 cells stably expressing STAT6 gene and STAT6 reporter gene
On this scale, pIC50 is minus log10 of a concentration expressed in M (mol/L).

INSERT INTO measurements (molecule, target_system, assay_metric, reported_value) VALUES
  ('CN(CC(NC(N)=O)c1ccc(F)cc1)S(=O)(=O)c1csc2c1CCCC2=NO (stereo not drawn)', 'STAT6 activation', 'pIC50', 7.89),
  ('CC1CCc2c(S(=O)(=O)N(C)CC(O)c3ccc(F)cc3)csc2/C1=N\O (stereo not drawn)', 'STAT6 activation', 'pIC50', 8.00);

Please examine the following record next.
q: Value lookup for pIC50; key = CC(C)C(=NO)c1cc(S(=O)(=O)N(C)CC(O)c2ccc(F)cc2)c(N)s1 (stereo not drawn)
a: 7.40
